# MCV per record follows
Species on record: Rattus norvegicus
Assay: Open TG-GATES - Regimen: Single
Format: toxicity, organism-based, Sprague-Dawley
Parameters: regimen Single, gender Male, age 6 weeks
Settings: in vivo, po, 0 mg/kg, 9 h, tissue Blood, route gavage, dose level Control
measured.attribute: MCV (fL)

compound	meas.value
CCOc1ccc(NC(=O)CC(C)O)cc1 (stereo not drawn)	64.3
CCCNC(=O)NS(=O)(=O)c1ccc(Cl)cc1 [CHLORPROPAMIDE]	65.1
CN(C)CCCN1c2ccccc2CCc2ccc(Cl)cc21	64.4

====

Organism: Rattus norvegicus
Assay: Open TG-GATES - Regimen: Single
Format: toxicity, organism-based, Sprague-Dawley
Set-up: regimen Single, gender Male, age 6 weeks
Conditions: in vivo, po, 0 mg/kg, 6 h, tissue Blood, route gavage, dose level Control
For each record, check the reported Lym: if it is below 80% write rule met, else write rule not met.

compound	category.label
CN(C)CCCN1c2ccccc2CCc2ccc(Cl)cc21 [CLOMIPRAMINE]	rule met
CCOc1ccc(NC(=O)CC(C)O)cc1 (stereo not drawn) [BUCETIN]	rule not met
CC1=C(/C=C/C(C)=C/C=C/C(C)=C/CO)C(C)(C)CCC1 [RETINOL]	rule met
CCOC(=O)CCC(=O)O[C@H]1[C@H](O[C@@H]2[C@@H](C)[C@H](O[C@H]3C[C@@](C)(OC)[C@@H](O)[C@H](C)O3)[C@@H](C)C(=O)O[C@H](CC)[C@@](C)(O)[C@H](O)[C@@H](C)C(=O)[C@H](C)C[C@@]2(C)O)O[C@H](C)C[C@@H]1N(C)C [ERYTHROMYCIN ETHYLSUCCINATE]	rule met
CC/C(=C(\c1ccccc1)c1ccc(OCCN(C)C)cc1)c1ccccc1 [TAMOXIFEN]	rule met
CN(C)CCCN1c2ccccc2CCc2ccccc21 [IMIPRAMINE]	rule met
CN1C(=O)CN=C(c2ccccc2)c2cc(Cl)ccc21 [DIAZEPAM]	rule met
Cc1ccc(C)c(OCCCC(C)(C)C(=O)O)c1 [GEMFIBROZIL]	rule met
CN(C)CCN(Cc1cccs1)c1ccccn1	rule not met
O=C(CCCN1CCC(O)(c2ccc(Cl)cc2)CC1)c1ccc(F)cc1 [HALOPERIDOL]	rule met
